# System: Pythium ultimum
# ASSAY_OVERVIEW: Pythium ultimum / liquid culture (seedling damping off)
# Assay type: cell-based
# CONDITION_INFO: Globisporangium ultimum, liquid culture in PDB, 24° C., 2-3 days after application, read-out: inhibit fungal infestation (inhibition of growth determined photometrically)
Entries and their measured inhibition at 200 ppm follow.
EXPERIMENTAL_READOUT: inhibition at 200 ppm

COMPOUND	REPORTED_MEASUREMENT
C#Cc1cnc2ccc(OC(SC)C(=O)NCc3ccccn3)cc2c1 (stereo not drawn) [Compound 25]	≥ 80%
C#Cc1cnc2c(C)cc(OC(SC)C(=O)NC(C)(C)c3cccnc3)cc2c1 (stereo not drawn) [Compound 56]	≥ 80%
C=Cc1cnc2c(C)cc(OC(OC)C(=O)NC(C)(C)c3nc(C)cs3)cc2c1 (stereo not drawn) [Compound 135]	≥ 80%
CSc1cnc2ccc(OC(SC)C(=O)NC(C)(C)c3nocc3C)cc2c1 (stereo not drawn) [Compound 74]	≥ 80%
C#Cc1cnc2c(C)cc(OC(SC)C(=O)NC(C)(C)c3cc(CO)on3)cc2c1 (stereo not drawn) [Compound 43]	≥ 80%
CSC(Oc1ccc2ncc(I)cc2c1)C(=O)NC(C)(C)c1cc(C(F)(F)F)on1 (stereo not drawn) [Compound 108]	≥ 80%
C#Cc1cnc2c(Cl)cc(OC(SC)C(=O)NCc3nccs3)cc2c1 (stereo not drawn) [Compound 117]	≥ 80%
C#Cc1cnc2ccc(OC(SC)C(=O)NCc3ncc(C)s3)cc2c1 (stereo not drawn) [Compound 79]	≥ 80%
C#Cc1cnc2c(C)cc(OC(SC)C(=O)NCc3nc(C)cs3)cc2c1 (stereo not drawn) [Compound 24]	≥ 80%

====

Entries and their measured melting point follow.
EXPERIMENTAL_READOUT: melting point (°C)

COMPOUND	REPORTED_MEASUREMENT
C#Cc1cnc2c(C)cc(OC(SC)C(=O)NC(C)(C)c3cccc(C)n3)cc2c1 (stereo not drawn)	123
C#Cc1cnc2ccc(OC(SC)C(=O)NC(C)(C)c3cccc(C)n3)cc2c1 (stereo not drawn)	148
C#Cc1cnc2ccc(OC(SC)C(=O)NCc3ccno3)cc2c1 (stereo not drawn)	115
CSC(Oc1ccc2ncc(Br)cc2c1)C(=O)NCc1ccccn1 (stereo not drawn)	104
C#Cc1cnc2ccc(OC(SC)C(=O)NCc3nc(C)c(C)s3)cc2c1 (stereo not drawn)	126
C#Cc1cnc2c(C)cc(OC(SC)C(=O)NC(C)(C)c3ccc(Cl)nc3)cc2c1 (stereo not drawn)	120
C=Cc1cnc2c(Cl)cc(OC(OC)C(=O)NC(C)(C)c3ccccn3)cc2c1 (stereo not drawn)	93
C#Cc1cnc2c(Cl)cc(OC(SC)C(=O)NC(C)(C)c3cc(CC)on3)cc2c1 (stereo not drawn)	157
CCc1cc(C(C)(C)NC(=O)C(Oc2ccc3ncc(I)cc3c2)SC)no1 (stereo not drawn)	125

====

# Tested on: Phytophthora infestans
# ASSAY_OVERVIEW: whole plant or invertebrate
# Assay type: in vivo
# CONDITION_INFO: in Solanum lycopersicum, foliar, read-out: inhibit fungal infestation (percent disease control compared to untreated)

MOLECULE	TESTED_ON	inhibition at 200 ppm
C#Cc1cnc2ccc(OC(SC)C(=O)NCc3nc(C)c(C)s3)cc2c1 (stereo not drawn) [Compound 31]	Phytophthora infestans	≥ 80%
C#Cc1cnc2c(C)cc(OC(SC)C(=O)NCc3nc(C)cs3)cc2c1 (stereo not drawn) [Compound 24]	Phytophthora infestans	≥ 80%
C#Cc1cnc2ccc(OC(SC)C(=O)NC(C)(C)c3cc(CC)on3)cc2c1 (stereo not drawn) [Compound 82]	Phytophthora infestans	≥ 80%

====

Entries and their measured melting point follow.
EXPERIMENTAL_READOUT: melting point (°C)

COMPOUND	UNIT_NAME	REPORTED_MEASUREMENT
C#Cc1cnc2ccc(OC(SC)C(=O)NC(C)(C)c3nccs3)cc2c1 (stereo not drawn) [Compound 32]	°C	123
CSC(Oc1ccc2ncc(Br)cc2c1)C(=O)NC(C)(C)c1ccccn1 (stereo not drawn) [Compound 8]	°C	105
C#Cc1cnc2c(C)cc(OC(SC)C(=O)NC(C)(C)c3cc(C)ccn3)cc2c1 (stereo not drawn) [Compound 17]	°C	82
C#Cc1cnc2ccc(OC(SC)C(=O)NCc3nc(C)cs3)cc2c1 (stereo not drawn) [Compound 30]	°C	115
COC(Oc1cc(Cl)c2ncc(Br)cc2c1)C(=O)NC(C)(C)c1ccccn1 (stereo not drawn) [Compound 14]	°C	95
CSC(Oc1ccc2ncc(I)cc2c1)C(=O)NCc1ccno1 (stereo not drawn) [Compound 2]	°C	153
C=Cc1cnc2c(F)cc(OC(CC)C(=O)NC(C)(C)c3nccs3)cc2c1 (stereo not drawn) [Compound 137]	°C	102
C#Cc1cnc2c(F)cc(OC(SC)C(=O)NC(C)(C)c3ccccn3)cc2c1 (stereo not drawn) [Compound 11]	°C	125
C=Cc1cnc2c(F)cc(OC(CC)C(=O)NC(C)(C)c3cc(CC)on3)cc2c1 (stereo not drawn) [Compound 139]	°C	114
C#Cc1cnc2ccc(OC(SC)C(=O)NC(C)(C)c3ncc(Cl)s3)cc2c1 (stereo not drawn) [Compound 19]	°C	125
CSC(Oc1ccc2ncc(I)cc2c1)C(=O)NCc1ccccn1 (stereo not drawn) [Compound 6]	°C	109
C#Cc1cnc2ccc(OC(SC)C(=O)NC(C)(CC)c3nc(C)cs3)cc2c1 (stereo not drawn) [Compound 20]	°C	120
C=Cc1cnc2c(F)cc(OC(OC)C(=O)NC(C)(C)c3ccon3)cc2c1 (stereo not drawn) [Compound 138]	°C	118
C#Cc1cnc2ccc(OC(SC)C(=O)NC(C)(C)c3ccc(Cl)nc3)cc2c1 (stereo not drawn) [Compound 27]	°C	114
C=Cc1cnc2c(Cl)cc(OC(CC)C(=O)NC(C)(C)c3ccon3)cc2c1 (stereo not drawn) [Compound 136]	°C	104
C#Cc1cnc2ccc(OC(CC)C(=O)NC(C)(C)c3ccccn3)cc2c1 (stereo not drawn) [Compound 13]	°C	96
C#Cc1cnc2c(C)cc(OC(SC)C(=O)NC(C)(C)c3ccccn3)cc2c1 (stereo not drawn) [Compound 7]	°C	113

====

COMPOUND	melting point / °C
C#Cc1cnc2c(F)cc(OC(SC)C(=O)NC(C)(C)c3cc(CC)on3)cc2c1 (stereo not shown)	133
CSC(Oc1cc(Cl)c2ncc(Br)cc2c1)C(=O)NCc1ccno1 (stereo not shown)	143
CSC(Oc1ccc2ncc(Br)cc2c1)C(=O)NCc1ccno1 (stereo not shown)	140
C#Cc1cnc2c(C)cc(OC(SC)C(=O)NCc3nc(C)cs3)cc2c1 (stereo not shown)	148
COC(Oc1cc(Cl)c2ncc(Br)cc2c1)C(=O)NC(C)(C)c1nccs1 (stereo not shown)	111
CSC(Oc1cc(C)c2ncc(Br)cc2c1)C(=O)NC(C)(C)c1ccccn1 (stereo not shown)	123
C#Cc1cnc2c(Cl)cc(OC(OC)C(=O)NC(C)(C)c3ccccn3)cc2c1 (stereo not shown)	108
C#Cc1cnc2ccc(OC(SC)C(=O)NC(C)(C)c3cc(C)ccn3)cc2c1 (stereo not shown)	63
C#Cc1cnc2ccc(OC(SC)C(=O)NCc3nccs3)cc2c1 (stereo not shown)	178
C=Cc1cnc2c(C)cc(OC(OC)C(=O)NC(C)(C)c3nc(C)cs3)cc2c1 (stereo not shown)	139
C#Cc1cnc2c(Cl)cc(OC(SC)C(=O)NC(C)(C)c3ccccn3)cc2c1 (stereo not shown)	153
C#Cc1cnc2ccc(OC(SC)C(=O)NCc3ccccn3)cc2c1 (stereo not shown)	133

====

# Test system: Phytophthora infestans
# ASSAY_OVERVIEW: whole plant or invertebrate
# Type: in vivo
# CONDITION_INFO: in Solanum lycopersicum, foliar, read-out: inhibit fungal infestation (percent disease control compared to untreated)

COMPOUND	inhibition at 200 ppm
C#Cc1cnc2ccc(OC(SC)C(=O)NC(C)(C)c3cc(C(=O)OC)on3)cc2c1 (centres unmarked) [Compound 40]	≥ 80%
C=Cc1cnc2c(C)cc(OC(OC)C(=O)NC(C)(C)c3nc(C)cs3)cc2c1 (centres unmarked) [Compound 135]	≥ 80%
C#Cc1cnc2ccc(OC(SC)C(=O)NC(C)(C)c3noc(C)c3Cl)cc2c1 (centres unmarked) [Compound 54]	≥ 80%
C#Cc1cnc2c(Cl)cc(OC(OC)C(=O)NC(C)(C)c3ccccn3)cc2c1 (centres unmarked) [Compound 12]	≥ 80%
C#Cc1cnc2ccc(OC(CC)C(=O)NC(C)(C)c3ccccn3)cc2c1 (centres unmarked) [Compound 13]	≥ 80%
C#Cc1cnc2cc(F)c(OC(SC)C(=O)NC(C)(C)c3cc(C)on3)cc2c1 (centres unmarked) [Compound 70]	≥ 80%
C#Cc1cnc2ccc(OC(SC)C(=O)NC3(c4ccccn4)CC3)cc2c1 (centres unmarked) [Compound 37]	≥ 80%
C#Cc1cnc2c(F)cc(OC(SC)C(=O)NC(C)(C)c3nocc3C)cc2c1 (centres unmarked) [Compound 77]	≥ 80%
